meta.source: paper PMC8934654

- Tested On: T1, EutV (Enterococcus faecalis, UniProt A0A1Q1FU69 1-190)
- T1 sequence: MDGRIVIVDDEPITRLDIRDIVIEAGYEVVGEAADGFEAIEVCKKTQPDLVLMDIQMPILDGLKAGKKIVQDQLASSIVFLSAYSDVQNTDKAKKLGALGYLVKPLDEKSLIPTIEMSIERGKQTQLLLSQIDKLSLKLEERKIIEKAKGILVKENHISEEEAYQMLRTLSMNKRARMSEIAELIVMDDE
- Protocol Details: SPR; CAPture chip, 2.5 mM MgCl2, n=8; SPR: 10 mM HEPES pH 7, 150 mM NaCl, 0.05% Tween-20, 2.5 mM MgCl2, 4 C; EMSA: 25 mM HEPES pH 7.5, 150 mM NaCl, 10 mM MgCl2, 4 C, 25 nM RNA
- Condition Notes: protein: recombinant; tags: none (His-tag cleaved by TEV); chain copies: 2; label: 3' biotin-TEG; two hairpins with hexaloops P1 and P2
Experimental Endpoint: pKd
Answers are plain numbers, as −log10 of the molar value.

The reported value for EutP RNA, 3' biotin (structured_RNA) RNA: AGAAUCAGAAACACAAUGGCGUGUUUUAACAAAUCGGCAAAGGAGCCCAAG in terms of pKd is 5.42
